biological target: Corticotropin-releasing factor receptor 1 (Homo sapiens)
Sequence (P34998 whole entry): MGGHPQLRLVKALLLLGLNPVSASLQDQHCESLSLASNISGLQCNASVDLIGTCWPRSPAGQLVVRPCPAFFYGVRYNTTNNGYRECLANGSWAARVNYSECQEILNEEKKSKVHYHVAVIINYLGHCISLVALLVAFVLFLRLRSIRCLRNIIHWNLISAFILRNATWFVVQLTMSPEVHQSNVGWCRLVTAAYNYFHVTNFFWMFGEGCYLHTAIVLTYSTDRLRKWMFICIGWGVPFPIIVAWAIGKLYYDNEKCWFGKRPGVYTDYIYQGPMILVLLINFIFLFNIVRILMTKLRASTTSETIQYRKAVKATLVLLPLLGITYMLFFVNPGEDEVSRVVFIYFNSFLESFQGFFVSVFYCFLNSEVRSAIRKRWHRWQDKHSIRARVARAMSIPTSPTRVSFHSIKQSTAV
pKi: −log10 of the molar value.
Readout name: pKi

Example entries begin here.
INSERT INTO assay_data (molecule, readout_name, result) VALUES
  ('CCCN(CC1CC1)c1nc(C)nc2c1sc(=S)n2-c1c(C)cc(C)cc1C', 'pKi', 7.88),
  ('CCN(CC)c1nc(C)nc2c1sc(=O)n2-c1c(C)cc(C)cc1C', 'pKi', 7.84),
  ('CCCN(CC1CC1)c1nc(C)nc2c1sc(=O)n2-c1c(C)cc(C)cc1C', 'pKi', 7.79);

[a] COCCN(CCOC)c1nc(C)nc2c1sc(=S)n2-c1c(C)cc(C)cc1C
[b] CCC(C)N(c1nc(C)nc2c1sc(=S)n2-c1ccc(C(C)C)cc1Br)C(C)CC (stereo not given)
Request: From the recorded data, which exceeds the other in pKi: a or b ? # respond with the chosen item's label
Response: a
(a: 8.07, b: 7.34)

Origin of the recorded values: ChEMBL document CHEMBL1131681
